PROCEDURE_DETAILS: in vitro
MEASUREMENT_PARAMETERS: human, normal liver L-02 cells
QUANTITY_KIND: IC50 at 24 h (µM)
Answers are plain numbers, in µM.

Consider the compound shown here: COc1cccc2c1C(=O)c1c(O)c3c(c(O)c1C2=O)C[C@@](O)(C(=O)CO)C[C@@H]3O[C@H]1C[C@H](N)[C@H](O)[C@H](C)O1 [doxorubicin, reference compound] What is its recorded IC50 at 24 h?
26.6

* * *

PROCEDURE_DETAILS: in vitro
MEASUREMENT_PARAMETERS: human
I'd appreciate it if you could supply IC50 at 48 h values for the items below.
Give bare numbers, in µM.

Answered cases to consult:
Which value of IC50 at 48 h has been reported for C/C(=C\CC[C@@H](C)C1CC[C@@]2(C)[C@@H]3CC=C4[C@@H](CCC(O[C@@H]5O[C@H](CO)[C@@H](O)[C@H](O)[C@H]5O)C4(C)C)[C@]3(C)C(=O)C[C@]12C)CO (some centres unmarked) in the records?
68.2

What measured IC50 at 48 h goes with C/C(=C\CC[C@@H](C)C1CC[C@@]2(C)[C@@H]3CC=C4[C@@H](CCC(O[C@@H]5O[C@H](CO)[C@@H](O)[C@H](O)[C@H]5O)C4(C)C)[C@]3(C)C(O)C[C@]12C)CO (some centres unmarked) ?
89.5

Continuing:
What does the data say about its IC50 at 48 h? Entry: C[C@H](CCC=C(CO)CO)C1CC[C@@]2(C)[C@@H]3C(=O)C=C4[C@@H](CCC(O[C@@H]5O[C@H](CO)[C@@H](O)[C@H](O)[C@H]5O)C4(C)C)[C@]3(C)C(=O)C[C@]12C (some centres unmarked)
50.5

* * *

Tested on: breast cancer MCF-7
PROCEDURE_DETAILS: MTT cytotoxicity assay, MCF-7 cells
MEASUREMENT_PARAMETERS: Homo sapiens, MCF7, 48 h, read-out: Cytotoxicity IC50 MCF-7
pIC50: −log10 of the molar value.
Rule: pIC50 of 5 or more gives condition met; anything lower gives condition not met.

These solved cases illustrate the format of a correct answer.
Test whether the compound CC(=CC1CC(C)(O)C2C(CC3(C)C4CC=C5C(CC(O)C(O)C5(C)C)C4(C)C(=O)CC23C)O1)COC1OC(CO)C(O)C(O)C1O (stereo not drawn) [Compound 1] records pIC50 of 5 or higher.
condition not met

Dear colleague, could you confirm whether COc1cccc2c1C(=O)c1c(O)c3c(c(O)c1C2=O)C[C@@](O)(C(=O)CO)C[C@@H]3O[C@H]1C[C@H](N)[C@H](O)[C@H](C)O1 [doxorubicin, reference compound] has pIC50 at or above 5?
condition met

Could you verify whether the entry C/C(=C\C1C[C@](C)(O)C2[C@@H](C[C@@]3(C)[C@@H]4CC=C5[C@@H](CC[C@H](O)C5(C)C)[C@]4(C)C(=O)C[C@]23C)O1)CO[C@@H]1O[C@H](CO)[C@@H](O)[C@H](O)[C@H]1O (stereo partly drawn) [Compound 2] shows pIC50 of no less than 5?
condition not met

Read the next record carefully.
Is pIC50 at least 5? Consider C[C@H](CCC=C(CO)CO)C1CC[C@@]2(C)[C@@H]3C(=O)C=C4[C@@H](CCC(O[C@@H]5O[C@H](CO)[C@@H](O)[C@H](O)[C@H]5O)C4(C)C)[C@]3(C)C(=O)C[C@]12C (stereo partly drawn) [Compound 5]
condition met

Data origin, for the record: paper PMC6720345
